Experiment: Illumination test (stability study)
Type: physicochemical
Details: 5 days
measuredEndpoint: Total impurity (%)

Consider the following illustrative entries.
COC(=O)C1=C(CN2CCOC[C@H]2C(=O)O)NC(c2nccs2)=N[C@H]1c1ccc(F)cc1Cl :: 6.28%
Br.COC(=O)C1=C(CN2CCOC[C@H]2C(=O)O)N=C(c2nccs2)N[C@H]1c1ccc(F)cc1Cl :: 2.37%
COC(=O)C1=C(CN2CCOC[C@H]2C(=O)O)N=C(c2nccs2)N[C@H]1c1ccc(F)cc1Cl.Cl :: 2.41%

Assign Total impurity (%) to the following record: COC(=O)C1=C(CN2CCOC[C@H]2C(=O)O)N=C(c2nccs2)N[C@H]1c1ccc(F)cc1Cl.O=C(O)C(O)C(O)C(=O)O
0.14%
